Tested on: SK-MEL-5 melanoma
experiment: NCI tumour cell line growth inhibition, 48 h
measured.attribute: TGI

// below: answered molecules
{"columns": ["molecule", "measured.attribute", "result"],
 "data": [
  ["C=C[C@@]1(C)CC[C@@H]2[C@@]3(C1)O[C@H]3CC1[C@](C)(C(=O)OC)CCC[C@@]12C (some centres undefined)", "TGI", "33.7 µM"],
  ["O=S1(=O)OCCOS(=O)(=O)C1S(=O)(=O)c1ccc2ccccc2c1", "TGI", "> 100 µM"],
  ["COc1cc(Br)c(C=Nc2cccc3cc(OC)c(OC)cc23)cc1OC", "TGI", "> 100 µM"],
  ["Cc1cc2c(cc1C)OC(=O)CC2", "TGI", "> 100 µM"],
  ["CC(=O)C1(Cc2cccc3ccccc23)S(=O)(=O)OCCOS1(=O)=O", "TGI", "24.6 µM"]
]}

Q) Please provide the recorded TGI for CCc1cccc(C(C)(C)C)c1NC(=S)N/C=C(/C#N)C(N)=O , tested on SK-MEL-5 melanoma.
A) > 100 µM

Q) Find TGI (SK-MEL-5 melanoma) for the entry C/C(=N\NC(=S)N1CC2CCC(CC2)C1)c1nccs1
A) 5.24 µM

====

Test system: PC-3 prostate
experiment: NCI tumour cell line growth inhibition, 48 h
TGI listing for selected compounds.

{"columns": ["compound", "TGI"],
 "data": [
  ["Fc1ccc(Oc2nc3ccc(C(F)(F)F)cc3nc2-c2ccccc2)cc1", "> 100 µM"],
  ["CC(C)Cn1cnc2c(SCc3ccc(Cl)cc3Cl)nc(N)nc21", "> 100 µM"],
  ["CC(=O)N1C(OC(C)C)CC(C)N1c1ccccc1 (configuration not stated)", "> 10 µM"],
  ["COc1c2cc(C(C)(C)C)cc1Cc1cccc(c1OCc1cccc([N+](=O)[O-])c1)Cc1cc(C(C)(C)C)cc(c1OC)Cc1cccc(c1OCc1cccc([N+](=O)[O-])c1)Cc1cc(C(C)(C)C)cc(c1OC)Cc1cccc(c1OCc1cccc([N+](=O)[O-])c1)C2", "> 50 µM"],
  ["NS(=O)(=O)c1ccc(-n2nc(-c3ccc(Cl)cc3)cc2-c2cc(O)ccc2O)cc1", "23.8 µM"]
]}

Q) Need TGI, item COC(=O)[C@H](Cc1ccccc1)NP(=O)(OCCC#N)OCC1OC(n2cc(C)c(=O)[nH]c2=O)CC1N=[N+]=[N-] (some centres not stated)
A) > 100 µM

Q) Entry under review: CC1(C)C2C=C(CCN3CCOCC3)CC1C2 (configuration not stated) . Reported TGI?
A) > 100 µM

====

Test system: A498 renal
experiment: NCI tumour cell line growth inhibition, 48 h
# reported TGI; entries follow

// known answers, use as guide
{"columns": ["chem.smiles", "measured.attribute", "result"],
 "data": [
  ["Cc1ccc(S(=O)(=O)N2CCC(=O)c3cc(Br)ccc32)cc1", "TGI", "30.1 µM"],
  ["CN1CCC2(CC1)ONC1=NCCN12", "TGI", "> 100 µM"]
]}

Let us examine a further case.
Q) Look up TGI for this molecule: COc1ccc(/C=C2\NC(=S)N(/C=C3\C(=O)Oc4ccccc4C3=O)C2=O)cc1OC
A) > 100 µM

====

Tested on: SF-295 CNS
experiment: NCI tumour cell line growth inhibition, 48 h
measured.attribute: TGI

Solved entries:
{"columns": ["chem.smiles", "TGI"],
 "data": [
  ["Cc1cc2c(cc1C)OC(=O)CC2", "> 100 µM"],
  ["COc1c2cc(C(C)(C)C)cc1Cc1cccc(c1OCc1cccc([N+](=O)[O-])c1)Cc1cc(C(C)(C)C)cc(c1OC)Cc1cccc(c1OCc1cccc([N+](=O)[O-])c1)Cc1cc(C(C)(C)C)cc(c1OC)Cc1cccc(c1OCc1cccc([N+](=O)[O-])c1)C2", "> 50 µM"]
]}

API: the following record is the query input.
Q) Given the compound COc1ccc(-c2cc3c(c4cc(OC)ccc24)C(=O)OC3=O)cc1 , what is its reported TGI?
A) > 100 µM

====

TGI values by entry
Test system: HCT-116 colon
experiment: NCI tumour cell line growth inhibition, 48 h

Example entries and their recorded answers appear below.
{"columns": ["compound", "TGI"],
 "data": [
  ["CN1CCC2(CC1)ONC1=NCCN12", "> 100 µM"],
  ["CCc1cc2c(c3c1CCC3=O)CC1(Cc3ccc(C)cc3C1)C2 (centres undefined)", "33.1 µM"],
  ["COc1cc(C2=C(c3cc(OC)c4ccccc4c3OC)C(=O)c3ccccc3C2=O)c(OC)c2ccccc12", "> 100 µM"],
  ["CN(O)C(=O)SCC(NC(=O)CCC(N)C(=O)O)C(=O)NCC(=O)O (centres undefined)", "> 2000 µM"],
  ["COc1c2cc(C(C)(C)C)cc1Cc1cccc(c1OCc1cccc([N+](=O)[O-])c1)Cc1cc(C(C)(C)C)cc(c1OC)Cc1cccc(c1OCc1cccc([N+](=O)[O-])c1)Cc1cc(C(C)(C)C)cc(c1OC)Cc1cccc(c1OCc1cccc([N+](=O)[O-])c1)C2", "> 50 µM"],
  ["N.N.N.N.N.NC(=O)c1nn[n-]n1.[Cl-].[Co+3]", "> 100 µM"],
  ["CNC(=O)Nc1nc2ccc([N+](=O)[O-])cc2[nH]1", "> 100 µM"],
  ["O=C(c1ccccc1)c1ccccc1-c1ccccc1", "30.1 µM"]
]}

Q) // returns reported TGI for input CCOC(=O)c1nnsc1NC(=O)Nc1ccc(Cc2ccc(NC(=O)Nc3snnc3C(=O)OCC)cc2)cc1
A) > 100 µM

Q) # lookup: TGI of CCCCCCCCNc1cc2c3c(c1)CCCN3CCC2
A) 7.92 µM

Q) Bench note: what TGI did C[C@@]1(O)C[C@@H](N2C(=O)O[C@@H](c3ccccc3)[C@H]2c2ccccc2)[C@@H]1COCc1ccccc1 show?
A) 47.4 µM

Q) Fill in: TGI of c1cncc(C2(c3cc4ccccc4[nH]3)COCO2)c1 (centres undefined) is ___
A) > 100 µM

Q) # TGI lookup, item O=C(O)CCN(CCCCN(CCC(=O)O)CCC(=O)O)CCC(=O)O
A) > 100 µM

Q) Recorded TGI for O=S1(=O)OCCOS(=O)(=O)C1S(=O)(=O)c1ccc2ccccc2c1 , please?
A) > 100 µM

Q) Please give the measured TGI for this compound: S=c1nc(N2CCCCC2)c2cn[nH]c2[nH]1
A) > 100 µM

Q) For the compound shown here, O=C(COc1ccc(Cl)cc1)N1N=C(c2ccc(Cl)cc2)CC1(O)c1ccccc1 (centres undefined) , give the reported TGI.
A) 26.3 µM

Q) Item Cc1cc(-c2cccc3ccccc23)c(C#N)c(=S)n1C1OC(CO)C(O)C(O)C1O (centres undefined) has what recorded TGI?
A) > 100 µM

Q) May I ask what TGI has been recorded for O=c1c2ccccc2nc(-c2cc3c(cc2Cl)Sc2nccn2S3(=O)=O)n1-c1ccccc1 ?
A) 29.8 µM

Q) Fill in the blank: the reported TGI of COC(=O)C1=C(C)NC(C)=C(C(=O)OC)C1c1ccccc1NO is ____.
A) 48.2 µM

Q) Which TGI is listed for CN1CC[C@]23c4c5ccc(O)c4O[C@H]2C(O)CC[C@@]3(O)[C@H]1C5 (some centres undefined) ?
A) > 100 µM

Q) What measured TGI goes with CC(=O)OCC1=C(C(=O)O)N2C(=O)C(NC(=O)CSc3ccncc3)C2SC1 (centres undefined) ?
A) > 100 µM

Q) If you can, please state the reported TGI value of CSC(=Nc1nnc(-c2ccc([N+](=O)[O-])cc2)s1)SC .
A) > 83.7 µM

Q) Reported TGI for CC(C)Cn1cnc2c(SCc3ccc(Cl)cc3Cl)nc(N)nc21 : what is it?
A) > 100 µM

Q) Query: TGI; subject: CCOC(=O)NC(Nc1ncccn1)(C(=O)OCC)C(F)(F)F (centres undefined)
A) > 100 µM

Q) What value of TGI has been recorded for this entry: CCN(Cc1ccc(Cl)cc1)c1ccc(CO)c(Cl)c1
A) 3.77 µM

Q) Which TGI value is on record for OC1c2ccccc2CC12Cc1ccccc1C2 (centres undefined) ?
A) > 100 µM

Q) Value lookup for TGI; key = COc1ccc2nc3cc(Cl)ccc3c(NCCNC(=O)Cn3c(=O)n(C)c(=O)c4c3nc3c(c(=O)n(C)c(=O)n3C)[n+]4[O-])c2c1
A) > 100 µM

Q) Would you kindly share the measured TGI for c1ccc(-c2nnc(-c3ccccn3)c3c2C[C@@H]2C[C@@H]4Cc5c(-c6ccccn6)nnc(-c6ccccn6)c5[C@@H]4[C@H]32)nc1 ?
A) > 100 µM

Q) Fill blank: measured TGI of the compound O=C1C(N2CCN(c3ccccn3)CC2)=C(Cl)C(=O)c2ncccc21 is ____.
A) 3.13 µM
